Measured Refractive Index accompanies every entry in the list below.
# test: Refractive index (Kruess AR 4 D Abbe refractometer)
# Type: physicochemical
# setupConditions: 20.0° C., wavelength 589 nm
Form rule: numeric answer, no unit written next to it.

Solved entries (count: 6):
# compound, Refractive Index
rows = [
    ("CC(C)(c1cc(Br)c(OCCC2CO2)c(Br)c1)c1cc(Br)c(OCCC2CO2)c(Br)c1 (stereo not drawn)", 1.610),
    ("c1cc(OCC2CO2)ccc1Cc1ccc(OCC2CO2)cc1 (stereo not drawn) [Reference Compound 3, reference compound]", 1.579),
    ("CC(C)(c1ccc(OCCCC2CO2)cc1)c1ccc(OCCCC2CO2)cc1 (stereo not drawn) [Reference Compound 5, reference compound]", 1.551),
    ("Clc1cccc(CC2CO2)c1OCCC1CO1 (stereo not drawn)", 1.535),
    ("C[Si]1(CCC2CCC3OC3C2)O[Si](C)(CCC2CCC3OC3C2)O[Si](C)(CCC2CCC3OC3C2)O[Si](C)(CCC2CCC3OC3C2)O1 (stereo not drawn) [Reference Compound 1, reference compound]", 1.496),
    ("C[Si](CCC1CCC2OC2C1)(CCC1CCC2OC2C1)c1ccccc1 (stereo not drawn) [Reference Compound 2, reference compound]", 1.536),
]

GET /value?item= CC(C)(c1cc(Cl)c(OCCCC2CO2)c(Cl)c1)c1cc(Cl)c(OCCCC2CO2)c(Cl)c1 (stereo not drawn) &field=Refractive Index returns 1.571

CC(C)(c1cc(Br)c(OCCCC2CO2)c(Br)c1)c1cc(Br)c(OCCCC2CO2)c(Br)c1 (stereo not drawn) has a reported Refractive Index of 1.604

Per the record, CC(C)(c1ccc(OCCC2CO2)cc1)c1ccc(OCCC2CO2)cc1 (stereo not drawn) [Reference Compound 4, reference compound] has Refractive Index of 1.563
